- Target entity: COX-2 (Homo sapiens)
- Construct: A 2.0 kb fragment containing the coding region of either human or murine COX-1 or human or murine COX-2; made in house; host or cells: SF9 insect cells (baculovirus, pVL1393)
- Sequence (P35354 18-604): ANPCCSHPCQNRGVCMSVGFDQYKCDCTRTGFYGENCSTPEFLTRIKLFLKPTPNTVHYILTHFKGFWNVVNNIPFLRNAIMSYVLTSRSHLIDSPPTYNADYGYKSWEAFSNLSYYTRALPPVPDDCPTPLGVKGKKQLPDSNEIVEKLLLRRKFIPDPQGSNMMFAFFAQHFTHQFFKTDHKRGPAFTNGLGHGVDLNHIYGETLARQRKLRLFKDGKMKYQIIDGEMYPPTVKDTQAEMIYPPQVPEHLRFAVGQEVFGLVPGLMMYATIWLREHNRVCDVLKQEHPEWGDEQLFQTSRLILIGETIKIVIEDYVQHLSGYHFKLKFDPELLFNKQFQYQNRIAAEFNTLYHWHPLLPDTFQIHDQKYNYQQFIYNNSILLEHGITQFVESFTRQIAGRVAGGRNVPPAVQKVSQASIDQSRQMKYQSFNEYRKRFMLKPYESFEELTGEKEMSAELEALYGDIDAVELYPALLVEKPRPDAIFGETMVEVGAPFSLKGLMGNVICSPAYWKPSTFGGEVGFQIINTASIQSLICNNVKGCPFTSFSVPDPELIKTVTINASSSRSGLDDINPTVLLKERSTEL
- Experiment: Assay for COX-2 activity (PGE2 formed, ELISA)
- Format: biochemical, human or murine
- Experimental conditions: human COX-2; standard assay; read-out: hCox-2 IC50
pIC50: −log10 of the molar value.
Property: pIC50; scope: individual molecules
Assay readout: pIC50

Molecule: Nc1c(Cl)cc(Oc2cccc3c2OC(C(F)(F)F)C(C(=O)O)=C3)c(F)c1Cl (centres unmarked) [Example 25d]
Assay readout: pIC50
Endpoint result: < 4.48

Molecule: CCCOc1c(Cl)cc(Cl)c2c1OC(C(F)(F)F)C(C(=O)O)=C2 (centres unmarked) [Example 23f]
Assay readout: pIC50
Endpoint result: < 3.30
